Cited source: patent US9359338B2

IC50: recorded values
Test system: PLC-PRF-5 cells
Protocol text: Inhibition of proliferation of PLC-PRF-5 cells (ATPlite)
Format: cell-based
Experimental context: Homo sapiens, PLC-PRF-5, PLC-PRF-5 cells; read-out: PLC-PRF-5 cell proliferation IC50
Text: Inhibitory Activity of Compounds to the Proliferation of PLC-PRF-5 Cells […]
Form entry: value (nM) — number only.

Solved cases below.
Structure | IC50 (nM)
O=C(Nc1cccc(Oc2cc(NC(=O)C3CC3)ncn2)c1)Nc1ccc(Cl)c(C(F)(F)F)c1 | 10300
CC(F)(F)c1cc(F)cc(NC(=O)Nc2ccc(Oc3ccnc(NC(=O)C4CC4)c3)c(F)c2)c1 | 206
Cc1cc(Oc2ccnc(NC(=O)C3CC3)c2)ccc1NC(=O)Nc1cc(F)cc(C(F)(F)F)c1 | 2910

Alright, here's another molecule for you.
Indicate the recorded IC50 value for this molecule: O=C(Nc1ccc(Oc2ccnc(NC(=O)C3CC3)c2)cc1F)Nc1cc(C(F)(F)F)ccc1Cl
636

###

Reported pIC50 for target or system B-Raf kinase (Homo sapiens (Human)), by entry.
Scale for pIC50: -log10 of concentration given in mol/L; no unit attached.

Indicate the recorded pIC50 value for this compound: O=C(Nc1ccc(Oc2ccnc(NC(=O)C3CC3)c2)c(F)c1)Nc1ccc(F)c(C(F)(F)F)c1 [Exe. 153]
7.49

Indicate the recorded pIC50 value for this compound: Cc1cc(Oc2ccnc(NC(=O)C3CC3)c2)ccc1NC(=O)Nc1ccc(F)c(C(F)(F)F)c1 [Exe. 191]
8.00

Indicate the recorded pIC50 value for this compound: N#Cc1ccc(NC(=O)Nc2ccc(Oc3ccnc(NC(=O)C4CC4)c3)cc2F)cc1Cl [Exe. 221]
7.96

Indicate the recorded pIC50 value for this compound: CN1CC(Oc2cc(NC(=O)Nc3ccc(Oc4ccnc(NC(=O)C5CC5)c4)cc3)cc(C(F)(F)F)c2)C1 [Exe. 241]
8.04

Indicate the recorded pIC50 value for this compound: O=C(Nc1ccc(Oc2ccnc(NC(=O)C3CC3)c2)c(F)c1)Nc1cc(C2CC2)ccc1F [Exe. 058]
6.94

Indicate the recorded pIC50 value for this compound: O=C(Nc1ccc(Oc2ccnc(NC(=O)C3CC3)c2)cc1)Nc1ccc2c(c1)C(F)(F)CCO2 [Exe. 151]
8.48

Indicate the recorded pIC50 value for this compound: CN1CCC(Nc2cc(NC(=O)Nc3ccc(Oc4ccnc(NC(=O)C5CC5)c4)c(F)c3)cc(C(F)(F)F)c2)CC1 [Exe. 161]
8.10

Indicate the recorded pIC50 value for this compound: O=C(Nc1ccc(OC(F)(F)F)cc1)Nc1ccc(Oc2ccnc(NC(=O)C3CC3)c2)c(F)c1 [Exe. 178]
7.46

Indicate the recorded pIC50 value for this compound: CC(F)(F)c1cncc(NC(=O)Nc2ccc(Oc3ccnc(NC(=O)C4CC4)c3)cc2)c1 [Exe. 065]
7.60

Indicate the recorded pIC50 value for this compound: CC(F)(F)c1ccnc(NC(=O)Nc2ccc(Oc3ccnc(NC(=O)C4CC4)c3)cc2)c1 [Exe. 147]
7.82

Indicate the recorded pIC50 value for this compound: CC(F)(F)c1cc(NC(=O)Nc2ccc(Oc3ccnc(NC(=O)C4CC4)c3)c(F)c2)ccc1Cl [Exe. 182]
7.49

Indicate the recorded pIC50 value for this compound: Cc1cc(NC(=O)Nc2cc(C(F)(F)F)ccc2F)cnc1Oc1ccnc(NC(=O)C2CC2)c1 [Exe. 124]
7.98

Indicate the recorded pIC50 value for this compound: CC(F)(F)c1ccnc(NC(=O)Nc2ccc(Oc3ccnc(NC(=O)C4CC4)c3)cc2F)c1 [Exe. 216]
8.00

Indicate the recorded pIC50 value for this compound: O=C(Nc1ccc(F)c(OC(F)(F)F)c1)Nc1ccc(Oc2ccnc(NC(=O)C3CC3)c2)cc1F [Exe. 215]
7.72

Indicate the recorded pIC50 value for this compound: O=C(Nc1ccc(Oc2ccnc(NC(=O)C3CC3)c2)cc1)Nc1cccc(C(F)(F)F)c1 [Exe. 144]
7.52

Indicate the recorded pIC50 value for this compound: O=C(Nc1ccc(Oc2ccnc(NC(=O)C3CC3)c2)c(F)c1)Nc1cc(C(F)(F)F)ccc1Cl [Exe. 157]
7.37

###

Tested on: PLC-PRF-5 cells
Protocol text: Inhibition of proliferation of PLC-PRF-5 cells (ATPlite)
Type: cell-based
Experimental context: Homo sapiens, PLC-PRF-5, PLC-PRF-5 cells; read-out: PLC-PRF-5 cell proliferation IC50
pIC50: recorded values
Scale for pIC50: -log10 of concentration given in mol/L; no unit attached.

Compound | Assay metric | Observed measurement
Cc1cc(Oc2cc(NC(=O)C3CC3)ncn2)ccc1NC(=O)Nc1cc(NC(C)C)cc(C(F)(F)F)c1 | pIC50 | 4.70
Cc1cc(Oc2ccnc(NC(=O)C3CC3)c2)ccc1NC(=O)Nc1ccc(F)c(OC(F)(F)F)c1 | pIC50 | 5.60
CC(F)(F)c1cc(NC(=O)Nc2ccc(Oc3ccnc(NC(=O)C4CC4)c3)c(F)c2)ccc1F | pIC50 | 6.64
CC1CN(c2cc(NC(=O)Nc3ccc(Oc4ccnc(NC(=O)C5CC5)c4)c(F)c3)cc(C(F)(F)F)c2)C(=O)O1 (stereo not shown) | pIC50 | 6.45
Cc1ccc(NC(=O)Nc2ccc(Oc3ccnc(NC(=O)C4CC4)c3)c(F)c2)cc1C(F)(F)F | pIC50 | 6.89

Indicate the recorded pIC50 value for this compound: O=C(Nc1cc(N2CCOCC2)cc(C(F)(F)F)c1)Nc1ccc(Oc2ccnc(NC(=O)C3CC3)c2)c(F)c1
6.59

Indicate the recorded pIC50 value for this compound: CN1CCC(c2cc(NC(=O)Nc3ccc(Oc4ccnc(NC(=O)C5CC5)c4)cc3)cc(C(F)(F)F)c2)CC1
6.05

Indicate the recorded pIC50 value for this compound: O=C(Nc1ccc(Cl)c(C(F)(F)F)c1)Nc1ccc(Oc2ccnc(NC(=O)C3CC3)c2)cc1F
6.10

Indicate the recorded pIC50 value for this compound: Cc1cc(Oc2cc(NC(=O)C3CC3)ncn2)ccc1NC(=O)Nc1cccc(C(C)(F)F)c1
5.23

Indicate the recorded pIC50 value for this compound: Cc1cc(Oc2cc(NC(=O)C3CC3)ncn2)ccc1NC(=O)Nc1cc(N2CCCC2)cc(C(F)(F)F)c1
4.78

Indicate the recorded pIC50 value for this compound: Cc1cc(Oc2ccnc(NC(=O)C3CC3)c2)ccc1NC(=O)Nc1cccc(OC(F)(F)F)c1
5.63

Indicate the recorded pIC50 value for this compound: Cc1cc(Oc2cc(NC(=O)C3CC3)ncn2)ccc1NC(=O)Nc1ccc(F)c(OC(F)(F)F)c1
4.80

Indicate the recorded pIC50 value for this compound: O=C(Nc1ccc(Oc2ccnc(NC(=O)C3CC3)c2)cc1F)Nc1cc(C(F)(F)F)ccc1F
7.29

Indicate the recorded pIC50 value for this compound: O=C(Nc1cccc(C(F)(F)F)c1)Nc1ccc(Oc2ccnc(NC(=O)C3CC3)c2)cn1
7.00

Indicate the recorded pIC50 value for this compound: O=C(Nc1ccc(Oc2ccnc(NC(=O)C3CC3)c2)c(F)c1)Nc1cc(C(F)(F)F)ncn1
6.64

Indicate the recorded pIC50 value for this compound: CC(F)(F)c1ccc(F)c(NC(=O)Nc2ccc(Oc3cc(NC(=O)C4CC4)ncn3)cc2F)c1
6.56

###

IC50: recorded values
Experimental system: KDR kinase (790-1356 AA) (Homo sapiens (Human))
Sequence (P35968 790-1356): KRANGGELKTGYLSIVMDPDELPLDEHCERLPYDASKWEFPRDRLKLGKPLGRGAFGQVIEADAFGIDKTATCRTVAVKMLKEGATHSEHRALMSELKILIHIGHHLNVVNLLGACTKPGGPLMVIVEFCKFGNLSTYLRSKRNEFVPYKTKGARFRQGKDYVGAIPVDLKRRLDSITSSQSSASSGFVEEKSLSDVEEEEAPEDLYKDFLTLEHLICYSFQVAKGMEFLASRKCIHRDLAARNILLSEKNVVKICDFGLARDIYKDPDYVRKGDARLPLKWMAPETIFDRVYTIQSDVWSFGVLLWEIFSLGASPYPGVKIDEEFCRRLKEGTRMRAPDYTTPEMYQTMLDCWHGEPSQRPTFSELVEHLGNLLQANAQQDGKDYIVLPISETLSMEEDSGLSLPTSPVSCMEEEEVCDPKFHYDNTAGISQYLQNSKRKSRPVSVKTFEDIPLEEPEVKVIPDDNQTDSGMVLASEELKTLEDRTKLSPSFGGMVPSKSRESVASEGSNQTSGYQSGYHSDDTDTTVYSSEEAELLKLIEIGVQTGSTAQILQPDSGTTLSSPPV
Protocol text: Inhibitory activity at KDR kinase (Lance Ultra Ulight-TK assay)
Format: biochemical
Form entry: value (nM) — number only.

Solved cases below.
Compound | Observed measurement
Cc1cc(Oc2cc(NC(=O)C3CC3)ncn2)ccc1NC(=O)Nc1cc(Cl)cc(C(F)(F)F)c1 [Exe. 075] | 13.1
O=C(Nc1ccc(Oc2ccnc(NC(=O)C3CC3)c2)c(F)c1)Nc1ccc(Cl)c(C(F)(F)F)c1 [Exe. 022] | 4.3
Cc1cc(Oc2ccnc(NC(=O)C3CC3)c2)ccc1NC(=O)Nc1ccc(F)c(C(F)(F)F)c1 [Exe. 191] | 11.8

Indicate the recorded IC50 value for this compound: O=C(Nc1cc(N2CC(F)(F)C2)cc(C(F)(F)F)c1)Nc1ccc(Oc2ccnc(NC(=O)C3CC3)c2)cc1F [Exe. 212]
5.5

###

Experimental system: KDR kinase (790-1356 AA) (Homo sapiens (Human))
Assay metric: pIC50
Scale for pIC50: -log10 of concentration given in mol/L; no unit attached.

Solved cases below.
Compound | Experimental system | pIC50
O=C(Nc1ccc(Oc2ccnc(NC(=O)C3CC3)c2)c(F)c1)Nc1cc(C(F)(F)F)cc(N2CCOCC2)n1 | KDR kinase (790-1356 AA) (Homo sapiens (Human)) | 8.27
Cc1cc(Oc2cc(NC(=O)C3CC3)ncn2)ccc1NC(=O)Nc1cccc(C(C)(F)F)c1 | KDR kinase (790-1356 AA) (Homo sapiens (Human)) | 7.91
O=C(Nc1ccc(Oc2ccnc(NC(=O)C3CC3)c2)c(F)c1)Nc1ccc(F)c(C(F)(F)F)c1 | KDR kinase (790-1356 AA) (Homo sapiens (Human)) | 7.82
CC(F)(F)c1cc(NC(=O)Nc2ccc(Oc3ccnc(NC(=O)C4CC4)c3)cc2F)ccc1Cl | KDR kinase (790-1356 AA) (Homo sapiens (Human)) | 7.96

Report pIC50 under test system KDR kinase (790-1356 AA) (Homo sapiens (Human)) for O=C(Nc1cc(NC(=O)[C@@H]2CCCN2)cc(C(F)(F)F)c1)Nc1ccc(Oc2ccnc(NC(=O)C3CC3)c2)c(F)c1 .
7.72

Report pIC50 under test system KDR kinase (790-1356 AA) (Homo sapiens (Human)) for CN1CCN(Cc2cc(NC(=O)Nc3ccc(Oc4ccnc(NC(=O)C5CC5)c4)c(F)c3)cc(C(F)(F)F)c2)CC1 .
7.79

Report pIC50 under test system KDR kinase (790-1356 AA) (Homo sapiens (Human)) for O=C(Nc1ccc(Oc2ccnc(NC(=O)C3CC3)c2)cc1)Nc1cc(C(F)(F)F)ccc1Cl .
7.98

Report pIC50 under test system KDR kinase (790-1356 AA) (Homo sapiens (Human)) for O=C(Nc1ccc(Oc2ccnc(NC(=O)C3CC3)c2)cc1)Nc1cc(OCC2CNC2)cc(C(F)(F)F)c1 .
7.86
